Recorded Activity for the following molecules
- Test system: Mus musculus
- assay comment: Toxicity in Swiss albino mouse implanted with mouse EAC cells assessed as effect on hemoglobin content at 0.5 mg/mouse administered for 9 days (reference value: 8.15 g/dl)
- Type: organism-based
- condition notes: in vivo, 216 h
Numbers only; they are read as g/dL.

Record excerpt, results attached:
[
  {
    "molecule": "Cc1n[nH]c2c1C(c1ccc(N(C)C)cc1)C=C(N)N2 (stereo not given)",
    "Activity (g/dL)": 10.95
  },
  {
    "molecule": "Cc1n[nH]c2c1C(c1ccc(N(C)C)cc1)C(C(N)=O)=C(N)N2 (stereo not given)",
    "Activity (g/dL)": 14
  },
  {
    "molecule": "Cc1n[nH]c2c1C(c1ccc(N(C)C)cc1)C(C(=O)NNc1cc([N+](=O)[O-])ccc1[N+](=O)[O-])=C(N)N2 (stereo not given)",
    "Activity (g/dL)": 13.1
  },
  {
    "molecule": "Cc1n[nH]c2c1C(c1ccc(N(C)C)cc1)C(C(=O)NNC(N)=S)=C(N)N2 (stereo not given)",
    "Activity (g/dL)": 13.4
  }
]

Lab note: next molecule to report on.
input: Consider the molecule COc1cccc2c1C(=O)c1c(O)c3c(c(O)c1C2=O)C[C@@](O)(C(=O)CO)C[C@@H]3O[C@H]1C[C@H](N)[C@H](O)[C@H](C)O1 [DOXORUBICIN] . State its measured Activity.
output: 12.75

====

Recorded IC50 for the following compounds
- assay comment: Displacement of methyl green from DNA (unknown origin) incubated in dark for 24 hrs
Numbers only; they are read as µM.

Record excerpt, results attached:
[
  {
    "compound": "Cc1n[nH]c2c1C(c1ccc(N(C)C)cc1)C(C(=O)O)=C(N)N2 (stereo not drawn)",
    "outcome measure": "IC50",
    "numeric result": 41.7
  },
  {
    "compound": "Cc1n[nH]c2c1C(c1ccc(N(C)C)cc1)C(C(=O)N/N=C/c1ccc(Cl)cc1)=C(N)N2 (stereo not drawn)",
    "outcome measure": "IC50",
    "numeric result": 67.8
  },
  {
    "compound": "Cc1n[nH]c2c1C(c1ccc(N(C)C)cc1)C(C(=O)NNc1cc([N+](=O)[O-])ccc1[N+](=O)[O-])=C(N)N2 (stereo not drawn)",
    "outcome measure": "IC50",
    "numeric result": 34
  }
]

input: Consider the compound Cc1n[nH]c2c1C(c1ccc(N(C)C)cc1)C=C(N)N2 (stereo not drawn) . State its measured IC50.
output: 56.4

input: Consider the compound COc1cccc2c1C(=O)c1c(O)c3c(c(O)c1C2=O)C[C@@](O)(C(=O)CO)C[C@@H]3O[C@H]1C[C@H](N)[C@H](O)[C@H](C)O1 [DOXORUBICIN] . State its measured IC50.
output: 31.3

input: Consider the compound Cc1n[nH]c2c1C(c1ccc(N(C)C)cc1)C(C(=O)NN)=C(N)N2 (stereo not drawn) . State its measured IC50.
output: 68.2

input: Consider the compound Cc1n[nH]c2c1C(c1ccc(N(C)C)cc1)C(C(N)=O)=C(N)N2 (stereo not drawn) . State its measured IC50.
output: 28

input: Consider the compound Cc1n[nH]c2c1C(c1ccc(N(C)C)cc1)C(C(=O)NNC(N)=S)=C(N)N2 (stereo not drawn) . State its measured IC50.
output: 36.7
